ASSAY_PROCEDURE: Plasma stability assay
Assay type: in vitro ADME, human
CONDITION_INFO: human plasma, 37° C., time points 0-120 min, LC-MS/MS; read-out: T½ in human plasma
Listing of recorded half-life at 3 μM by entry.
PROPERTY_LABEL: half-life at 3 μM

[[record]]
molecule = "CCCCCc1cc(OC(=O)NCCCOP(=O)(O)O)c2c(c1)OC(C)(C)[C@@H]1CC=C(C)C[C@@H]21.N.N [Compound 21b]"
reported_value = "> 2 h"

[[record]]
molecule = "CCCCCc1cc(OC(=O)CCCOP(=O)(O)O)c2c(c1)OC(C)(C)[C@@H]1CC=C(C)C[C@@H]21.N.N [Compound 16a]"
reported_value = "> 2 h"

[[record]]
molecule = "CCCCCc1cc(OC(=O)OCCCCOP(=O)(O)O)c2c(c1)OC(C)(C)[C@@H]1CC=C(C)C[C@@H]21.N.N [Compound 11b]"
reported_value = "> 2 h"


----------
ASSAY_PROCEDURE: Liver microsome stability assay (HLM)
Format: in vitro ADME
CONDITION_INFO: pH 7.4; human liver microsomes, 3 μM test compound, NADPH, 0-30 min, LC-MS/MS; read-out: T½ in HLM
Counter-ions that a name gives are not always drawn.
PROPERTY_LABEL: half-life at 3 μM (min)

[[record]]
compound = "CCCCCc1cc(OC(=O)NCCCOP(=O)(O)O)c2c(c1)OC(C)(C)[C@@H]1CC=C(C)C[C@@H]21.N.N [Compound 21b]"
reported_value = 12.5

[[record]]
compound = "CCCCCc1cc(OC(=O)CCCOP(=O)(O)O)c2c(c1)OC(C)(C)[C@@H]1CC=C(C)C[C@@H]21.N.N [Compound 16a]"
reported_value = 51.3

[[record]]
compound = "CCCCCc1cc(OC(=O)NCCOP(=O)(O)O)c2c(c1)OC(C)(C)[C@@H]1CC=C(C)C[C@@H]21.N.N [Compound 21a]"
reported_value = 5.6

[[record]]
compound = "CCCCCc1cc(OC(=O)OCCCCOP(=O)(O)O)c2c(c1)OC(C)(C)[C@@H]1CC=C(C)C[C@@H]21.N.N [Compound 11b]"
reported_value = 17.2

[[record]]
compound = "CCCCCc1cc(OC(=O)OCCCOP(=O)(O)O)c2c(c1)OC(C)(C)[C@@H]1CC=C(C)C[C@@H]21 [Compound 11a, di-ammonium salt]"
reported_value = 18.8

[[record]]
compound = "CCCCCc1cc(OC(=O)CCCCOP(=O)(O)O)c2c(c1)OC(C)(C)[C@@H]1CC=C(C)C[C@@H]21.N.N [Compound 16b]"
reported_value = 40.1

